Kindly state Ki for each of the entries shown.
SUBJECT OF TEST: MC1-R (Mus musculus)
Construct: B-16 mouse melanoma cells (containing MC1-R); endogenous in cells
Sequence (Q01727 whole entry): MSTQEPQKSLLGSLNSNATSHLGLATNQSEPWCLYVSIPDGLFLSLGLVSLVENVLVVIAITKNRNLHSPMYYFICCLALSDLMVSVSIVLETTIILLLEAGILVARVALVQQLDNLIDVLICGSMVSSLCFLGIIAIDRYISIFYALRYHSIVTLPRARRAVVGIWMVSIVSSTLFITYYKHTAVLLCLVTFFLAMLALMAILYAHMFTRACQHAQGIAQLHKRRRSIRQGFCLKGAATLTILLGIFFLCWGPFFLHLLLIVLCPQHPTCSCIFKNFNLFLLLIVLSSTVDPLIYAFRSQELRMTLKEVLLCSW
MEASUREMENT NOTES: Competitive inhibition assay using [I^125]-NDP-α-MSH, B-16 mouse melanoma cell membranes
Format: binding
TEST PARAMETERS: read-out: Ki (nM) (NDP-α-MSH) In Normal System, MC1-R
Give bare numbers, in nM.

MOLECULE: CC(C)C[C@@H]1CN(C(=O)[C@H](N)Cc2ccc(Cl)cc2Cl)[C@@H](CCCNC(=N)N)CN1CCc1ccc2ccccc2c1 [Example 4]
SUBJECT OF TEST: MC1-R (Mus musculus)
ENDPOINT LABEL: Ki
ENDPOINT UNIT: nM
MEASURED RESULT: 1360

MOLECULE: CC(=O)N[C@H](Cc1ccc2ccccc2c1)C(=O)N1C[C@@H](C)N(C(=O)Cc2ccc3ccccc3c2)C[C@@H]1CCCNC(=N)N [Example 32]
SUBJECT OF TEST: MC1-R (Mus musculus)
ENDPOINT LABEL: Ki
ENDPOINT UNIT: nM
MEASURED RESULT: 406

MOLECULE: N=C(N)NCCC[C@H]1CN(CCc2ccc3ccccc3c2)CCN1C(=O)[C@H](N)Cc1ccc(Cl)cc1Cl [Example 17]
SUBJECT OF TEST: MC1-R (Mus musculus)
ENDPOINT LABEL: Ki
ENDPOINT UNIT: nM
MEASURED RESULT: 1200

MOLECULE: Cc1cc(Cl)ccc1C[C@@H](N)C(=O)N1C[C@@H](C)N(C(=O)Cc2ccc3ccccc3c2)C[C@@H]1CCCNC(=N)N [Example 10]
SUBJECT OF TEST: MC1-R (Mus musculus)
ENDPOINT LABEL: Ki
ENDPOINT UNIT: nM
MEASURED RESULT: 462

MOLECULE: N=C(N)NCCC[C@H]1C(=O)N2C(CC[C@@H]2COc2ccc3ccccc3c2)N1C(=O)[C@@H](Cc1ccc(Cl)cc1Cl)NC(=O)[C@@H]1Cc2ccccc2CN1 (stereo partly shown) [Example 22]
SUBJECT OF TEST: MC1-R (Mus musculus)
ENDPOINT LABEL: Ki
ENDPOINT UNIT: nM
MEASURED RESULT: 111

Respectfully, I request Ki for each entry included below.
1. N=C(N)NCCC[C@H]1C(=O)N(CCc2c[nH]c3ccccc23)CCN1C(=O)[C@H](N)Cc1ccc(Cl)cc1Cl [Example 2]
2. Cc1cc(Cl)ccc1C[C@@H](N)C(=O)N1C[C@@H](C)N(CCc2c[nH]c3ccccc23)C[C@@H]1CCCNC(=N)N [Example 9]
3. C[C@@H]1CN(C(=O)[C@H](N)Cc2ccc3ccccc3c2)[C@@H](CCCNC(=N)N)CN1C(=O)Cc1ccc2ccccc2c1 [Example 33]
4. CC(=O)N[C@H](Cc1ccc(C)cc1C)C(=O)N1C[C@@H](C)N(CCc2ccc3ccccc3c2)C[C@@H]1CCCNC(=N)N [Example 25]

Ans.
[1410, 1730, 227, 568]

====

Kindly state Ki for each of the entries shown.
SUBJECT OF TEST: MC1-R (Mus musculus)
Construct: B-16 mouse melanoma cells (containing MC1-R); endogenous in cells
MEASUREMENT NOTES: Competitive inhibition assay using [I^125]-NDP-α-MSH, B-16 mouse melanoma cell membranes
Type: binding
TEST PARAMETERS: read-out: Ki (nM) (NDP-α-MSH) In Normal System, MC1-R
One number for each entry, in nM.

Sample records with Ki:
STRUCTURE: C[C@@H]1CN(C(=O)[C@H](N)Cc2ccc3ccccc3c2)[C@@H](CCCNC(=N)N)CN1C(=O)CCCc1c[nH]c2ccccc12
MEASURED RESULT: 1200
--
STRUCTURE: CC(=O)N[C@H](Cc1ccc2ccccc2c1)C(=O)N1C[C@@H](CC(C)C)N(CCc2ccc3ccccc3c2)C[C@@H]1CCCNC(=N)N
MEASURED RESULT: 4620

Pending compound:
Qu. Return reported Ki. Input compound: CC(=O)N[C@H](Cc1ccc(Cl)cc1C)C(=O)N1C[C@@H](C)N(C(=O)Cc2ccc3ccccc3c2)C[C@@H]1CCCNC(=N)N
Ans. 1390

Value source: patent US20090081197A1
